# Tested on: MCF7 breast
# ASSAY_PROTOCOL: NCI tumour cell line growth inhibition, 48 h; in the data active means GI50 below about 0.43 µM; inactive means the rest
Respond using exactly one of the listed classes: active, inactive

Would you please look over these solved cases?
* CN1c2cccc[c]2[Sn]([CH3])([CH3])[c]2ccccc21 | active
* c1ccc(OCC[P+](c2ccccc2)(c2ccccc2)c2ccccc2)cc1 | inactive
* Nc1ncnc2c1ncn2Cc1ccc(CCl)cc1 | inactive

How was C/C=C1/CN2CCC34c5ccccc5N5C(=O)C(C6CC78c9ccccc9N9C(=O)C=CC(C%10CC7N6C/C%10=C/C)C98)=CC(C1CC23)C54 (stereo not drawn) classified in this test?
inactive

Tell me the recorded outcome of this test for O=C(O)[C@@H](Cc1ccccc1)NS(=O)(=O)c1ccc(-c2ccccc2)cc1 .
inactive

Per the records of this test, what outcome belongs to Cc1c(-c2c(F)cc(C(N)=O)c3[nH]c4c(c23)CC[C@H](C(C)(C)O)C4)cccc1-n1c(=O)c2cccc(F)c2n(C)c1=O ?
inactive

Can you look up the reported call for CC(=O)Nc1ccc2c(c1)[nH]c(=O)c1cc(NC(C)=O)ccc12 for me?
inactive

// param item: O=C(/C=C/c1cc2ccccc2[nH]c1=O)c1ccc(O)cc1 ; yields the recorded call
inactive

* * *

# Test system: RXF 393 renal
# ASSAY_PROTOCOL: NCI tumour cell line growth inhibition, 48 h
ASSAY_METRIC: TGI

Guide cases for TGI, answers given:
• O=C(/C=C/c1cc2ccccc2[nH]c1=O)c1ccc(O)cc1 = 3.23 µM
• OCC1OC(NO)C(O)C(O)C1O (stereo not drawn) = > 100 µM

Please find the next compound below.
Given the entry C=CCNc1nc2c(N)ncnc2s1 , what TGI was observed with RXF 393 renal?
> 10 µM

* * *

TGI listing for selected compounds.
# System: OVCAR-8 ovarian
# ASSAY_PROTOCOL: NCI tumour cell line growth inhibition, 48 h

Below, 5 compounds whose answers are already recorded.
* Cc1cc2nc3c(C)c4ccccc4c(C)n3c2cc1C | > 10 µM
* c1ccc2cc(Cn3c(-c4cccc5ccccc45)[n+](Cc4ccc5ccccc5c4)c4c5ccccc5c5ccccc5c43)ccc2c1 | 1.92 µM
* CC(C)(C)c1cc([Si](C)(C)C)c(C#N)c([Si](C)(C)C)c1 | > 100 µM
* CCCCCCCCC/C=C1/CC(CO)(COC(=O)C2CCCCC2)OC1=O (stereo unspecified) | > 100 µM
* CC(C)Cc1cc(-c2cccn2C)c(C#N)c(=O)[nH]1 | > 100 µM

Lab note: next compound to report on.
What value of TGI has been reported for the following compound? CC1O[C@@H]2CCCCC(=O)[C@]2(C)[C@H]1C (stereo partly specified)
> 100 µM

* * *

Form field: TGI (one value per entry).
# System: HCC-2998 colon
# ASSAY_PROTOCOL: NCI tumour cell line growth inhibition, 48 h

Known TGI results, listed for orientation:
* COc1c(C(=O)CC2c3c(cc4oc(C)cc(=O)c4c3OC)OC(=N)C2c2nc3ccccc3[nH]2)c(O)c(OC)c2occc12 (configuration not stated) | > 100 µM
* COC(=O)/C(=C1\OC(=O)C(c2ccc(Cl)cc2)=C1O)c1ccc(Cl)cc1 | 86.5 µM
* O=S(=O)(O)c1ccc([Se][Se]c2ccc(S(=O)(=O)O)cc2)cc1 | > 100 µM
* CN(C)c1ccc(/C=C(\C#N)C(=O)c2ccccc2)cc1Br | > 100 µM
* O=C(/C=C/c1cc2ccccc2[nH]c1=O)c1ccc(O)cc1 | 16 µM
* CC#CC#C/C=C1/C=CC2(CCCCO2)O1 (configuration not stated) | > 100 µM

What value of measured TGI is listed for Cc1ccc(O)c(C(=O)/C=C/c2ccccc2)c1 ?
> 100 µM

Reported TGI, compound CC(C)(C)c1ccc(OCCOc2ccc(C(C)(C)C)cc2NC=O)c(NC=O)c1 : ____
23.5 µM

I am curious: what TGI value has been reported for COc1ccc(CC2OC3(CCCCC3)CC3CCCCN32)cc1 (configuration not stated) ?
> 100 µM

For the compound CC(=O)O[C@H]1C(=O)[C@@]2(C)C(C(OC(=O)c3ccccc3)[C@]3(O)CC(OC(=O)C(O)C(NC(=O)c4cccc(Cl)c4)c4ccccc4)C(C)=C1C3(C)C)[C@]1(OC(C)=O)CO[C@@H]1C[C@@H]2O (some centres not stated) , what TGI is on record?
4.1 µM

So what does the record say about TGI for O=C(Nc1c(Cl)cccc1Cl)Oc1cccc2cccnc12 ?
24.6 µM

* * *

# System: IGROV1 ovarian
# ASSAY_PROTOCOL: NCI tumour cell line growth inhibition, 48 h; in the data active = GI50 below about 0.43 µM; inactive = the rest
// one of active, inactive, no free text

Some solved cases for reference:
- O=C(COc1ccc(Cl)cc1Cl)NNc1ccc([N+](=O)[O-])cc1: inactive
- CCN(Cc1c(F)cccc1C(F)(F)F)c1ccc(CO)c(Cl)c1: active
- Nc1ncnc2c1ncn2Cc1ccc(CCl)cc1: inactive
- O=C1NC(=O)/C(=C/c2ccc3nccc(-c4ccncc4)c3c2)S1: active
- Clc1ccc(Nc2nnc(COc3ccccc3)c3ccccc23)cc1: inactive
- C[C@H]1O[C@@H](O[C@H]2[C@@H](O)C[C@H](O[C@H]3[C@@H](O)C[C@H](O[C@H]4CC[C@]5(C)C6CC[C@]7(C)[C@@H](C8=CC(=O)OC8)CC[C@]7(O)C6CC[C@@H]5C4)O[C@@H]3C)O[C@@H]2C)C[C@H](O)[C@@H]1O (stereo not given in full): active

// param item: Fc1ccc(Nc2ccnc(N3CCN(c4ccnc5cc(Cl)ccc45)CC3)n2)cc1 ; yields the recorded call
inactive

Can you look up the reported call for OCC1OC(n2cnc3cc(Cl)c(Cl)cc32)C(O)C1O (stereo not given) for me?
inactive

// return assay outcome for C=C1C(=O)O[C@H]2[C@H]1CC/C(COC(=O)NCCc1ccc(Br)cc1)=C\CC[C@@]1(C)O[C@@H]21
inactive

For this compound, state the assay outcome: COc1ccc(C2CC(=O)Nc3c2c(C)nn3-c2nc3ccccc3[nH]2)cc1OC (stereo not given)
inactive

Which outcome was assigned to COc1cccc(/C=C/C(=O)c2cc3c(N)c(C(=O)Nc4ccccc4)sc3nc2C)c1 in this test?
inactive

Which outcome was entered for the compound CN1c2cccc[c]2[Sn]([CH3])([CH3])[c]2ccccc21 in this test?
active

What outcome does the record of this test show for O=C(Nc1c(Cl)cccc1Cl)Oc1cccc2cccnc12 ?
inactive

Assay result, entry Cc1cccc(Nc2ncc(-c3ccccc3)o2)c1 — outcome?
inactive

# fetch the recorded call for CC(=O)OCc1cc[c]([Hg][Cl])o1 here
inactive

* * *

# Tested on: RPMI-8226 leukemia
# ASSAY_PROTOCOL: NCI tumour cell line growth inhibition, 48 h; in the data active = GI50 below about 0.43 µM; inactive = the rest
One label from this list, please: active, inactive

Answered examples (5):
• O=C(Nc1cccc(Cl)c1)Nc1cc(C(F)(F)F)ccc1Cl = inactive
• CCCCCCCC(=O)[O-].N.N.N.N.N.[Co+3].[O-][Cl+3]([O-])([O-])[O-] = inactive
• COc1ccc(COc2ccc(Cc3cnc(N)nc3N)cc2OC)cc1 = inactive
• CN1CCN(CCCn2c3c(sc4ncccc43)c(=O)n3nnc(-c4ccccc4)c23)CC1 = inactive
• CS(=O)(=O)Nc1cc(-c2ccc3ncnc(Nc4ccc(OCc5ccccn5)c(Cl)c4)c3c2)cnc1Cl = active

Status in this test for OCC1OC(n2cnc3cc(Cl)c(Cl)cc32)C(O)C1O (stereo not given) ?
inactive

Check the results log: what was the call for Cc1cc(S(=O)(=O)Nc2nc3ccccc3s2)c(SCc2ccccc2)cc1Cl ?
inactive

Please indicate how the test categorized C=C1C(=O)O[C@H]2[C@H]1CC/C(COC(=O)NCCc1ccc(Br)cc1)=C\CC[C@@]1(C)O[C@@H]21 .
inactive

What was the test verdict on COc1ccc(N2CCN(c3nc(-c4ccccn4)nc4sc5c(c34)CCCCCC5)CC2)cc1 ?
inactive

Which result was noted for this molecule in the test: O=C(COc1ccc(Cl)cc1Cl)NNc1ccc([N+](=O)[O-])cc1
inactive

* * *

# Test system: SF-268 CNS
# ASSAY_PROTOCOL: NCI tumour cell line growth inhibition, 48 h
ASSAY_METRIC: TGI

Consider the reported TGI for these compounds:
* C#CCN(Cc1ccc2nc(-c3ccccc3)c(Cl)nc2c1)c1ccc(Cl)c(Cl)c1 | > 100 µM
* CCCCCCCCCCCCCC(=O)OCC1OC(=O)C(O)C1O (stereo unspecified) | > 100 µM
* CCn1c(C)nc([N+](=O)[O-])c1Sc1ncc[nH]1 | > 100 µM
* CN1c2cccc[c]2[Sn]([CH3])([CH3])[c]2ccccc21 | 0.165 µM

Moving on to the next compound.
# query: TGI of entry Cc1ccc2c(=O)cc(-c3ccccc3)[nH]c2n1
> 100 µM

* * *

# Tested on: HCC-2998 colon
# ASSAY_PROTOCOL: NCI tumour cell line growth inhibition, 48 h; in the data active = GI50 below about 0.43 µM; inactive = the rest
Outcome field: choose from active, inactive

Example entries begin here.
- OCC1OC(n2cnc3cc(Cl)c(Cl)cc32)C(O)C1O (stereo not drawn): inactive
- CS(=O)(=O)Nc1cc(-c2ccc3ncnc(Nc4ccc(OCc5ccccn5)c(Cl)c4)c3c2)cnc1Cl: inactive
- COC1C[C@H](O[C@@H]2C[C@H](O[C@@H]3C[C@H](O[C@@H]4C(=O)c5c(cc6cc(O[C@H]7C[C@@H](O[C@H]8C[C@@H](O)[C@H](O)C(C)O8)[C@H](O)C(C)O7)c(C)c(O)c6c5O)C[C@H]4C(OC)C(=O)[C@@H](O)[C@@H](C)O)OC(C)[C@H]3O)OC(C)[C@@H]2O)OC(C)[C@@H]1O (stereo partly drawn): active
- CN1CCN(CCCn2c3c(sc4ncccc43)c(=O)n3nnc(-c4ccccc4)c23)CC1: inactive

Dear colleague, could you share the recorded outcome for Fc1ccc(Nc2ccnc(N3CCN(c4ccnc5cc(Cl)ccc45)CC3)n2)cc1 when you have a moment?
inactive

GET /call?item= O=C(COc1ccc(Cl)cc1Cl)NNc1ccc([N+](=O)[O-])cc1 returns the recorded outcome of this test.
inactive

What call does the record list for O=C1NC(=O)/C(=C/c2ccc3nccc(-c4ccncc4)c3c2)S1 ?
active

Assay result, entry CCN1C(=O)N(CC)C2C1NN=c1s/c(=C\c3ccc(Br)cc3)c(=O)n12 (stereo not drawn) — outcome?
active

Where these numbers come from: PubChem BioAssay (NCI)
